Source: patent US7138361B2

Quick list: Plant response rating, Bermudagrass per entry.
Tested on: bermudagrass (Cynodon dactylon)
method.notes: Test C preemergence
Format: in vivo
condition.info: Rate 62 g/ha; scale 0 to 100, 0 no effect, 100 complete control
Description: […]
The response must contain the number and no unit.

A selection of reference data follows.
>>> observed_result("CCC(C)c1ccn(C2CCN(c3ccc(C)c(OC)c3)C2=O)n1 (stereo not drawn)")
100
>>> observed_result("O=C1C(n2ccc(C3CCC3)n2)SCN1c1cccc(OC(F)F)c1 (stereo not drawn)")
50
>>> observed_result("CC1(c2ccn(C3OCN(c4cccc(C(F)(F)F)c4)C3=O)n2)CC1 (stereo not drawn)")
40
>>> observed_result("CC(C)(C)c1ccn(C2CCN(c3ccc(Cl)c(Cl)c3)C2=O)n1 (stereo not drawn)")
80
>>> observed_result("CC1(c2ccn(C3SCN(c4cccc(C(F)(F)F)c4)C3=O)n2)CC1 (stereo not drawn)")
100
>>> observed_result("CC(C)(C)c1ccn(C2CCN(c3ccc(F)c(Br)c3)C2=O)n1 (stereo not drawn)")
100
>>> observed_result("CCC(C)c1ccn(C2OCN(c3cccc(OC(F)(F)F)c3)C2=O)n1 (stereo not drawn)")
100
>>> observed_result("O=C1C(n2ccc(C3CC3)n2)CCN1c1cccc(C(F)(F)F)c1 (stereo not drawn)")
0

Now examine the next entry.
Data request, read-out Plant response rating, Bermudagrass, for CC(C)(C)c1ccn(C2CCN(c3ccc(Cl)c(Br)c3)C2=O)n1 (stereo not drawn)
40
